All figures here come from patent US10150780B2.

Some molecules, each annotated with its measured IC50.
# Tested on: HIV-1 (NL4-3 strain)
# protocol.summary: Assay for Inhibition of HIV Replication (VIKING), infected MT4-GFP cells
# Format: cell-based
# measurement.conditions: Human immunodeficiency virus 1, NL43, MT4-GFP cells infected with HIV-1 NL4-3; RPMI + 100% normal human serum; infected cells at 48 h / 24 h; read-out: VIKING IP50 (nM) with 100% NHS

{"molecule": "COC1N(N(C)C)C(=O)c2c(O)c(=O)c(C(=O)NCc3ccc(F)cc3F)cn2C12COC2 (stereo not drawn)", "readout.units": "nM", "IC50": 235}
{"molecule": "CN(C)N1CC2(CCOCC2)n2cc(C(=O)NCc3ccc(F)cc3F)c(=O)c(O)c2C1=O", "readout.units": "nM", "IC50": 1510}
{"molecule": "CN(C)N1CC2(COC2)n2cc(C(=O)NCc3ccc(F)cc3F)c(=O)c(O)c2C1=O", "readout.units": "nM", "IC50": 1280}
